All figures here come from paper PMC8458281.

studyTarget: T1, CXCR4 V112L (human, UniProt P61073-1 1-352, V112L)
T1 construct: human CXCR4, isoform 1 or b; source: 293T cells, transiently transfected (pcDNA3.1 CXCR4-IRES-eGFP), on cells
T1 sequence (P61073 whole entry V112L, canonical isoform): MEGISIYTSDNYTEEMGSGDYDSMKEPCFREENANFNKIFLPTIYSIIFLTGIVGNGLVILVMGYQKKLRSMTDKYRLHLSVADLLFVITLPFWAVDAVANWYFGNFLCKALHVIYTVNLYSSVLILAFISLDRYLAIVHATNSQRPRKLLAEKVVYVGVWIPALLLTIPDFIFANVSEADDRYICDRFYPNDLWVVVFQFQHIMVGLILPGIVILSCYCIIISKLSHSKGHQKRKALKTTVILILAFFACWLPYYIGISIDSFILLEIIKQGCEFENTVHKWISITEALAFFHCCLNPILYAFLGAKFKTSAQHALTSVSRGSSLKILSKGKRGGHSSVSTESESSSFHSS
assayText: flow cytometry on cells; 12G5 antibody competition on 293T cells transiently transfected with CXCR4 wt or mutants (IRES-eGFP vector), eGFP-positive cells gated; serially diluted peptide with a constant concentration of CXCR4 antibody clone 12G5, 2 h; bound antibody read; IC50 by nonlinear regression
experimentalConditions: one partner purified
readout: IC50 (µM)
Write it as a number; the unit µM goes unstated.

Request: What IC50 value was documented for this binder, LVRYTKKVPQVSTPTL (source: synthetic peptide (Fmoc solid-phase synthesis, HPLC-purified)) [EPI-X4 (Alb408-423)] ?
Response: 41.1
